Recorded measurements of activity at 0.1 µM, one per entry
tested on: HUVECs; assay: High-content imaging cytotoxicity in HUVECs, 24 h; format: cell-based, human; conditions: Homo sapiens, HUVEC, 24 h, HUVECs, 24 hr, 0.10 µM; 0.00 µM = 100.00; read-out: huvec.nma.24hr
Counter-ions that a name gives are not always drawn.
assay-endpoint: activity at 0.1 µM

| compound | assay-endpoint | value-observed |
| --- | --- | --- |
| Oc1cc(Cl)cc(-c2cccc(Cl)c2)c1 [5-OH PCB 11] | activity at 0.1 µM | 111% |
| Clc1ccc(-c2ccccc2)cc1 [PCB3] | activity at 0.1 µM | 93% |
| O=S(=O)(O)Oc1ccc(-c2cccc(Cl)c2)cc1Cl [4-yl PCB 11 sulfate] | activity at 0.1 µM | 104% |
| O=S(=O)(O)Oc1cccc(-c2ccc(Cl)cc2)c1 [3'-yl PCB 3 sulfate] | activity at 0.1 µM | 101% |

====

tested on: iPSC-CMs, iPSC-ECs and HUVECs phenotypes; assay: ToxPi 2.0 integration of POD values and physicochemical descriptors; design: species or system human; settings: ToxPi-scaled (0-1) score; iPSC endothelial cells, tube formation, 18 h
Structures can show the parent of a compound that is named as a salt.
Listed here are compounds together with their documented endo.mtl.18hr.
assay-endpoint: endo.mtl.18hr

| compound | value-observed |
| --- | --- |
| Clc1ccc(Cl)c(-c2c(Cl)ccc(Cl)c2Cl)c1Cl [(+)-PCB 136, 2,2′,3,3′,6,6′-hexachlorobiphenyl] | 0.04754 |
| COc1ccc(-c2cccc(Cl)c2)cc1Cl | 0 |
| Oc1cc(Cl)c(-c2cc(Cl)ccc2Cl)cc1Cl | 0.2459 |
| COc1cc(Cl)c(-c2cc(Cl)ccc2Cl)cc1Cl | 0.06827 |
| O=S(=O)(O)Oc1ccc(-c2cccc(Cl)c2)cc1Cl [4-PCB 11 sulfate] | 0.1436 |
| Oc1cccc(-c2ccc(Cl)cc2)c1 | 0.5876 |
| Clc1ccc(-c2cc(Cl)c(Cl)c(Cl)c2)cc1Cl | 0.1325 |
| O=S(=O)(O)Oc1ccc(-c2ccc(Cl)cc2)cc1 [4'-PCB 3 sulfate] | 0.3281 |
| Oc1ccc(-c2cccc(Cl)c2)cc1Cl | 0.181 |
| O=S(=O)(O)Oc1cccc(-c2ccc(Cl)cc2)c1 [3'-PCB 3 sulfate] | 0.5389 |

====

Test system: iCell cardiomyocytes (human iPSC-derived cardiomyocytes)
Test: Intracellular Ca2+ flux / beating parameters in iCell cardiomyocytes (FLIPR tetra), 90 min or 24 h
Type: cell-based
Conditions: Homo sapiens, Cardiomyocyte, 1.5 h, 0.01 µM; 0.00 µM = 100.00; read-out: cm.bpm.90min
Experimental: Details on cardiomyocyte cell culture are described in detail elsewhere ([Grimm et al. 2015b]; [Sirenko et al. 2013a]). […] Live cell counts for each cell suspension were determined by trypan blue staining and cells were further diluted to provide final cell densities of 2×10^5 viable cells/ml. […] Responses of iCell®-cardiomyocytes to drugs and chemicals were evaluated using intracellular Ca^2+ flux measurements ([Grimm et al. 2015b]; [Sirenko et al. 2013b]). […]
Counter-ions that a name gives are not always drawn.
assay-endpoint: activity at 0.01 µM (%)

| molecule | tgt | assay-endpoint | value-observed |
| --- | --- | --- | --- |
| O=C1C=CC(=O)C(c2ccc(Cl)cc2)=C1 | iCell cardiomyocytes (human iPSC-derived cardiomyocytes) | activity at 0.01 µM | 103 |
| O=S(=O)(O)Oc1cccc(-c2ccc(Cl)cc2)c1 [3'-yl PCB 3 sulfate] | iCell cardiomyocytes (human iPSC-derived cardiomyocytes) | activity at 0.01 µM | 96.5 |
| Clc1cccc(-c2cccc(Cl)c2)c1 | iCell cardiomyocytes (human iPSC-derived cardiomyocytes) | activity at 0.01 µM | 103 |
| COc1ccc(-c2ccc(Cl)cc2)cc1 | iCell cardiomyocytes (human iPSC-derived cardiomyocytes) | activity at 0.01 µM | 103 |
| O=S(=O)(O)Oc1ccc(-c2cccc(Cl)c2)cc1Cl [4-yl PCB 11 sulfate] | iCell cardiomyocytes (human iPSC-derived cardiomyocytes) | activity at 0.01 µM | 97.8 |
| Oc1cc(Cl)cc(-c2cccc(Cl)c2)c1 | iCell cardiomyocytes (human iPSC-derived cardiomyocytes) | activity at 0.01 µM | 97.8 |
| Oc1ccc(-c2ccc(Cl)cc2)cc1 | iCell cardiomyocytes (human iPSC-derived cardiomyocytes) | activity at 0.01 µM | 97.8 |
